Assay system: T1, monkey C5-mmh (monkey, UniProt P01031 19-1676 (human entry), limits assumed)
T1 construct: Expressed with a C-terminal myc-myc-hexahistidine tag
T1 chain: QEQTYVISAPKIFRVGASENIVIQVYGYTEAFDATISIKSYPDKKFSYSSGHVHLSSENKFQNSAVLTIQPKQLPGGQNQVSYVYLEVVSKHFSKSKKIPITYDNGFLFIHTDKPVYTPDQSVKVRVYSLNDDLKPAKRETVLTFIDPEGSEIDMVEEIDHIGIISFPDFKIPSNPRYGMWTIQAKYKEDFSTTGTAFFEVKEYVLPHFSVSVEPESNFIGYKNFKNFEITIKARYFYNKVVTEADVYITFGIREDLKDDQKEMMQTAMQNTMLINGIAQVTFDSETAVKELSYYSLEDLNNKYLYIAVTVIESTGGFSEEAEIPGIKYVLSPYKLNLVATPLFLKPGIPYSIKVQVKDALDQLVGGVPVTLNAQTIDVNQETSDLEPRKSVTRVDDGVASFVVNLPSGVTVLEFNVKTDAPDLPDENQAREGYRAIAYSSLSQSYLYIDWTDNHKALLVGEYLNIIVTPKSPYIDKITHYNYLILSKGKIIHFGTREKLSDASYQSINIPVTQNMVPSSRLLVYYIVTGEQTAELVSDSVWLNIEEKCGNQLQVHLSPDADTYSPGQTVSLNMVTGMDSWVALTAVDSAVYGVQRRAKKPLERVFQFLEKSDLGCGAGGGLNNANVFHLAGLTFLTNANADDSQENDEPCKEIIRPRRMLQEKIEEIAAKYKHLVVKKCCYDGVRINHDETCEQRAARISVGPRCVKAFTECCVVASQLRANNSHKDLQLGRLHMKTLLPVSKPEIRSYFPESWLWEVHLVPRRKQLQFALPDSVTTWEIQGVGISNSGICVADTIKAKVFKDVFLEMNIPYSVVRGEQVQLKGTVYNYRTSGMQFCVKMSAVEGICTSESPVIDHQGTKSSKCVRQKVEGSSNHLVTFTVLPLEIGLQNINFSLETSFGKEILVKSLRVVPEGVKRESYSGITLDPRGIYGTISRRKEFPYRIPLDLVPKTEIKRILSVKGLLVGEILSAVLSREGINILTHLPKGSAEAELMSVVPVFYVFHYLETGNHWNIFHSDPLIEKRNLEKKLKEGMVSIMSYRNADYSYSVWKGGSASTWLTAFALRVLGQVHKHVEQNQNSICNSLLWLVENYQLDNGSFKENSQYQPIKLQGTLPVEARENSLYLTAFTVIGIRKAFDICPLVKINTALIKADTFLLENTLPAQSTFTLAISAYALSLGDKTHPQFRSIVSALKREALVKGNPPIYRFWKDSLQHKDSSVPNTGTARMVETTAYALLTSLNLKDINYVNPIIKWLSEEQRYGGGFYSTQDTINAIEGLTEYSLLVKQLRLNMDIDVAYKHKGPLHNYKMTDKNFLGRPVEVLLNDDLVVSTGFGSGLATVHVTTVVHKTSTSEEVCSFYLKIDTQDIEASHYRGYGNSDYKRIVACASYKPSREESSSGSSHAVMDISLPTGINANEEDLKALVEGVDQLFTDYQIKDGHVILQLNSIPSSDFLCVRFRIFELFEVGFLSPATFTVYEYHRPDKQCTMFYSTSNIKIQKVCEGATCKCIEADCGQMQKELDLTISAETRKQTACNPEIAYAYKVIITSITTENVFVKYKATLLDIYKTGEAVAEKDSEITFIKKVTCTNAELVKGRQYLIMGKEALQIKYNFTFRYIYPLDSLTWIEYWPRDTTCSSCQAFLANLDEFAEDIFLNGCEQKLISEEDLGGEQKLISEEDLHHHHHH
Method: SPR, mAb captured by anti-hFc, 25C
Label 1 when 100 nM monkey C5-mmh Bound (RU) is at or above 90 RU; otherwise label -1.

Solved entries (count: 8):
* H4H12175P (antibody, human IgG4, V domains shown) VH: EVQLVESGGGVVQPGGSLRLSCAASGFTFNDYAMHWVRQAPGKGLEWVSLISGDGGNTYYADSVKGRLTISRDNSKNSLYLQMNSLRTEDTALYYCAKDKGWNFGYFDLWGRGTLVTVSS VL: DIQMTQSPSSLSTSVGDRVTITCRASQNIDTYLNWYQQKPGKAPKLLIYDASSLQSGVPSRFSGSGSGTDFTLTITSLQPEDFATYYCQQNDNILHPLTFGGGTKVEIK | -1
* H4H12166P2 (antibody, human IgG4, V domains shown, human IgG4 Fc with S108P hinge mutation) VH: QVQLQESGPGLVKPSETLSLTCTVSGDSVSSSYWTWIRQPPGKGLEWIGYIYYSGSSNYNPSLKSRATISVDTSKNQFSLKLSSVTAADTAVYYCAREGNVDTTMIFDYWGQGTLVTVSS VL: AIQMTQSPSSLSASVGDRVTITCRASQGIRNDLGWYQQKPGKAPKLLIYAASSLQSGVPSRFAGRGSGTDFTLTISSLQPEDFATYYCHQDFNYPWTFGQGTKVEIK | -1
* H4H12171P (antibody, human IgG4, V domains shown) VH: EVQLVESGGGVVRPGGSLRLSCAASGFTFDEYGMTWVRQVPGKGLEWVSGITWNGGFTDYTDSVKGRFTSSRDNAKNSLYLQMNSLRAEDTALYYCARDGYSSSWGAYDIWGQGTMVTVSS VL: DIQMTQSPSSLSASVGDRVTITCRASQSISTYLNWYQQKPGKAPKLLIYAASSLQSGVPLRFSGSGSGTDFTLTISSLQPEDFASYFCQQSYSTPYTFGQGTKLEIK | -1
* H4H12166P4 (antibody, human IgG4, V domains shown, human IgG4 Fc with S108P hinge mutation) VH: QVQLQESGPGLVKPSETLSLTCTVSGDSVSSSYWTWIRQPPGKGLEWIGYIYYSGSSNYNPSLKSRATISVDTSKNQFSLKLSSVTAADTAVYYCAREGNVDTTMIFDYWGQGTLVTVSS VL: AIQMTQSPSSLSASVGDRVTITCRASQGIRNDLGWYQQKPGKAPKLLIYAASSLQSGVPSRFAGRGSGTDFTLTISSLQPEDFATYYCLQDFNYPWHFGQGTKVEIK | -1
* H4H12166P6 (antibody, human IgG4, V domains shown, human IgG4 Fc with S108P hinge mutation) VH: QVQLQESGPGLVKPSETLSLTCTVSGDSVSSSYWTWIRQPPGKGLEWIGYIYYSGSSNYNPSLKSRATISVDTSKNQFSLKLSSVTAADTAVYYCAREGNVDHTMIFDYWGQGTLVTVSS VL: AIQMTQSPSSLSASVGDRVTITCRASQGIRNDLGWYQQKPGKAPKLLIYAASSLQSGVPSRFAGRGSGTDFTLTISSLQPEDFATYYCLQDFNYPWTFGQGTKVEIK | 1
* H4H12167P (antibody, human IgG4, V domains shown) VH: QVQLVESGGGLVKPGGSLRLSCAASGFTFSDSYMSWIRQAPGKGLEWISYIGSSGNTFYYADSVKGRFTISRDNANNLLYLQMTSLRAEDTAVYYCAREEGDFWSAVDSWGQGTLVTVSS VL: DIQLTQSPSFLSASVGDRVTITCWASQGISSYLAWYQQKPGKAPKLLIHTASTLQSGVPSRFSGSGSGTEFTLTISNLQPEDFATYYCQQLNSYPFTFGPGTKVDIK | 1
* H4H12166P10 (antibody, human IgG4, V domains shown, human IgG4 Fc with S108P hinge mutation) VH: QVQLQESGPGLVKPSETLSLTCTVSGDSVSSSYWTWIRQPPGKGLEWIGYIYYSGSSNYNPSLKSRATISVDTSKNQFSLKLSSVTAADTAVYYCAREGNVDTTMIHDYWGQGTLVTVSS VL: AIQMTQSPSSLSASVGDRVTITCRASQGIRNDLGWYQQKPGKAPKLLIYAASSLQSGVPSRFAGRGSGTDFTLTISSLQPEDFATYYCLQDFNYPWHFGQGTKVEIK | -1
* H4H12168P (antibody, human IgG4, V domains shown) VH: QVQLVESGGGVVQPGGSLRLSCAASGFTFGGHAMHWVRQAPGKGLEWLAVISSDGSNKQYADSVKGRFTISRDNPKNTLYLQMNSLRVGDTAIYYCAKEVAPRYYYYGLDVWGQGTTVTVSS VL: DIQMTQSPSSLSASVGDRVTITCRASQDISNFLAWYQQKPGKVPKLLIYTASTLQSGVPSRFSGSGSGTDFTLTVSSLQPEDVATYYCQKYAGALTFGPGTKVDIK | -1

Here is another binder to look at.
Task: Does H4H12166P8 (antibody, human IgG4, V domains shown, human IgG4 Fc with S108P hinge mutation) VH: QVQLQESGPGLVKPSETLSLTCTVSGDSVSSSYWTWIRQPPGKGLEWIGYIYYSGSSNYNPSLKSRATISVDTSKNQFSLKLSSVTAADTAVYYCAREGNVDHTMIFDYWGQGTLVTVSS VL: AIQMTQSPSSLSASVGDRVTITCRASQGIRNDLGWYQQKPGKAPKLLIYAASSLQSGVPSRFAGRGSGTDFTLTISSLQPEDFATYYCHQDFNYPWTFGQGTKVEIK have a reported 100 nM monkey C5-mmh Bound (RU) of at least 90 RU?
Output: -1

Origin of the recorded values: patent US20170355757A1
